- measured.on: CXCR2 (Homo sapiens)
- Sequence (P25025 1-360): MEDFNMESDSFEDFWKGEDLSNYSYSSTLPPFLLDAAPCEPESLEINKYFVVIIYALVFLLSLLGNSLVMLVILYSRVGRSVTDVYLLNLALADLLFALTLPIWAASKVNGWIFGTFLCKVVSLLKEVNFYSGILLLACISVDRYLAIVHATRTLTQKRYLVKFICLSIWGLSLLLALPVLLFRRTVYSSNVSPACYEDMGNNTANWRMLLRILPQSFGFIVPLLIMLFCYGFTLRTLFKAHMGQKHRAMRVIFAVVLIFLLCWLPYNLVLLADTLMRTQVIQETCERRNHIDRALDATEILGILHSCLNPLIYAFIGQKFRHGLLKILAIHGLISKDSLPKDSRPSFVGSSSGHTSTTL
pKi: −log10 of the molar value.

{"compound.structure.string": "CC[C@@H](Nc1nc2nonc2nc1Nc1cccc(C(=O)N(C)C)c1O)c1ccc(C)o1", "pKi": 6.71}
